IC50 tested on Coagulation factor X (Homo sapiens): recorded values
Sequence (P00742 41-179 limits assumed): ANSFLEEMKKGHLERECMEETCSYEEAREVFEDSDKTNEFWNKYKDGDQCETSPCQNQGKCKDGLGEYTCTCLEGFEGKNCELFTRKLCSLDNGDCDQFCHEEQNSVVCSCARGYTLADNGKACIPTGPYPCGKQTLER
Sequence (P00742 235-488 limits assumed): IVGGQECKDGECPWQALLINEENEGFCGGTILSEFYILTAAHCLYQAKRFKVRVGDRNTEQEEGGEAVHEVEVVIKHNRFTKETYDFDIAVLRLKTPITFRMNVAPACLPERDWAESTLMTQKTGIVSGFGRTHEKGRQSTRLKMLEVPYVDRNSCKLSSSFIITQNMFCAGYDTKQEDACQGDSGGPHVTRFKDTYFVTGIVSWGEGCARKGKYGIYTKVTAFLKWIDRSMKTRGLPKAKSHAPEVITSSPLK
# number only, unit nM dropped from output

For CN1Cc2nc(C(=O)N[C@@H]3C[C@@H](C(=O)N(C)C)CC[C@@H]3NC(=O)c3cc4cc(Cl)ccc4[nH]3)sc2C1 , what is its reported IC50?
3.4

For CN1CCc2nc(C(=O)N[C@@H]3C[C@@H](C(=O)N(C)C)CC[C@@H]3NC(=O)c3nc(=O)c4cc(Cl)ccc4[nH]3)sc2C1 , what is its reported IC50?
1.4

For CN1Cc2nc(C(=O)N[C@@H]3C[C@@H](C(=O)N(C)C)CC[C@@H]3NC(=O)c3ccc4cc(Cl)ccc4c3)sc2C1 , what is its reported IC50?
12

For CN1CCc2nc(C(=O)N[C@@H]3C[C@@H](C(=O)N(C)C)CC[C@@H]3NC(=O)C3=Cc4ccc(Cl)cc4OC3)sc2C1 , what is its reported IC50?
35

Values compiled from ChEMBL document CHEMBL1153111.
